target: human ALK-1 on cells (CHO-K1-hALK-1 cells; HUVEC; A172) (human, UniProt P37023 22-503); test: cell-based or functional assay
test-readout: IC50 of blocking BMP9-induced Smad1 phosphorylation in HUVEC cells (ELISA kit) (nM)
Answer in nM, number only, no unit symbol.

anti-ALK-1 antibody #3 (antibody, human IgG1, kappa, L234A L235A, V domains shown) VH: QVQLQESGPGLVKPSQTLSLTCTVSGGSISSGEYYWNWIRQHPGKGLEWIGYIYYSGSTYYNPSLKSRVTISVDTSKNQFSLKLSSVTAADTAVYYCARESVAGFDYWGQGTLVTVSS VL: EIVLTQSPGTLSLSPGERATLSCRASQSVSSSYLAWYQQKPGQAPRLLIYGTSSRATGIPDRFSGSGSGTDFTLTISRLEPEDFAVYYCQLYGSFPITFGQGTRLEIKR
5.3

Now for another entry.
INPUT: Given the binder anti-ALK-1 antibody #9 (antibody, human IgG1, kappa, L234A L235A, V domains shown) VH: QVQLQESGPGLVKPSQTLSLTCTVSGGSISSGEYYWNWIRQHPGKGLEWIGYIYYSGSTYYNPSLKSRVTISVDTSKNQFSLKLSSVTAADTAVYYCARESVAGFDYWGQGTLVTVSS VL: EIVLTQSPGTLSLSPGERATLSCRASQSVSSSYLAWYQQKPGQAPRLLIYGTSSRATGIPDRFSGSGSGTDFTLTISRLEPEDFAVYYCQIYGSWPITFGQGTRLEIKR , what is its reported IC50 of blocking BMP9-induced Smad1 phosphorylation in HUVEC cells (ELISA kit)?
OUTPUT: 11.6
